- Assay explanation: yeast display, Sf9 membrane polyspecificity reagent, FACS + sequencing; frameworks hold sequencing errors

Macromolecule sequence: HVQLEESGGGLVQAGGSLRLSFAASGSIRKYYAMGSYIQAPAKERELDAAISGSGSTTYYADSVKGRFTISRDNAKNTVYLELNSLKPEDTAVYYCAAVYAFGNRYAYGSDSWGQGTQVTVSS
polyreactivity (PSR sort gate): low polyreactivity
--
Macromolecule sequence: QVQLVESGGGLVQAGGSLRLSCAASGRIFNQYGMGWYRQAPGKERELVASITLTDGSTYYADSVKGRFTISRDNAKNTVYLQMNSLKPEDTAVYYCAARISGGSTFRYQRMYYWGQGTQVTVSS
polyreactivity (PSR sort gate): low polyreactivity
--
Macromolecule sequence: QVQLVESGGGLVQAGGSLRLSCAASGYTFIGYAMGWYRQAPGKERELVAAISWSVGRTYYADSVKGRFTISRDNAKNTVYLQMNSLKPEDTAVYYCNAVSSFYYCYDYWGQVTQVTVSS
polyreactivity (PSR sort gate): low polyreactivity
